The reported numbers originate from patent US8778966B2.

target: TANK-2 enzyme (Homo sapiens, UniProt Q9H2K2); construct: made in house; test: In vitro Scintillation Proximity Assay (SPA) for TANK-2 inhibitory activity; assay type: biochemical; conditions: read-out: in vitro SPA assay TANK-2 pIC50 (converted)
Assay Readout: IC50 (nM)
Report only the number, with the unit nM understood.

INSERT INTO results (compound, assay_readout, numeric_value) VALUES
  ('Cc1cc2ccc(C(C)(C#N)C3CCc4c(C#N)cccc43)cc2[nH]c1=O (racemic) [Compound 393]', 'IC50', 794),
  ('Cc1cc2ccc([C@](C)(C#N)[C@H]3CCc4ccccc43)cc2[nH]c1=O [Compound 387]', 'IC50', 2510),
  ('CCc1cc2ccc(C(C#N)(CC)CCOc3ccc(C#N)cc3)cc2[nH]c1=O (centres unmarked) [Compound 271]', 'IC50', 501),
  ('CCc1cc2ccc(C(C)(C#N)Cc3cc(C#N)nc(OC)c3)cc2[nH]c1=O (centres unmarked) [Compound 314]', 'IC50', 25.1),
  ('CCc1cc2ccc(C(C)(C#N)CCOc3ccc(Br)cc3)cc2[nH]c1=O (centres unmarked) [Compound 160]', 'IC50', 316),
  ('CCc1cc2ccc([C@](C)(C#N)Cc3cccc(/C=C/S(C)(=O)=O)c3)cc2[nH]c1=O (single isomer, unassigned) [Compound 291]', 'IC50', 126),
  ('CCc1cc2ccc(C(C)(C#N)Cc3ccc(OC)nc3)cc2[nH]c1=O (centres unmarked) [Compound 352]', 'IC50', 631);

From here, focus on the item given below.
INPUT: What value of IC50 on TANK-2 enzyme (Homo sapiens, UniProt Q9H2K2) does CCc1cc2ccc(C(C)(C#N)Cc3cccc(OCc4ccccc4)c3)cc2[nH]c1=O (centres unmarked) [Compound 23] have?
OUTPUT: 200

====

target: Human PARP-1 enzyme (Homo sapiens, UniProt P09874); construct: purchased Trevigen; assay: In vitro Scintillation Proximity Assay (SPA) for PARP-1 inhibitory activity; type: biochemical; conditions: read-out: in vitro SPA assay PARP-1 pIC50 (converted)
Sequence (P09874 whole entry): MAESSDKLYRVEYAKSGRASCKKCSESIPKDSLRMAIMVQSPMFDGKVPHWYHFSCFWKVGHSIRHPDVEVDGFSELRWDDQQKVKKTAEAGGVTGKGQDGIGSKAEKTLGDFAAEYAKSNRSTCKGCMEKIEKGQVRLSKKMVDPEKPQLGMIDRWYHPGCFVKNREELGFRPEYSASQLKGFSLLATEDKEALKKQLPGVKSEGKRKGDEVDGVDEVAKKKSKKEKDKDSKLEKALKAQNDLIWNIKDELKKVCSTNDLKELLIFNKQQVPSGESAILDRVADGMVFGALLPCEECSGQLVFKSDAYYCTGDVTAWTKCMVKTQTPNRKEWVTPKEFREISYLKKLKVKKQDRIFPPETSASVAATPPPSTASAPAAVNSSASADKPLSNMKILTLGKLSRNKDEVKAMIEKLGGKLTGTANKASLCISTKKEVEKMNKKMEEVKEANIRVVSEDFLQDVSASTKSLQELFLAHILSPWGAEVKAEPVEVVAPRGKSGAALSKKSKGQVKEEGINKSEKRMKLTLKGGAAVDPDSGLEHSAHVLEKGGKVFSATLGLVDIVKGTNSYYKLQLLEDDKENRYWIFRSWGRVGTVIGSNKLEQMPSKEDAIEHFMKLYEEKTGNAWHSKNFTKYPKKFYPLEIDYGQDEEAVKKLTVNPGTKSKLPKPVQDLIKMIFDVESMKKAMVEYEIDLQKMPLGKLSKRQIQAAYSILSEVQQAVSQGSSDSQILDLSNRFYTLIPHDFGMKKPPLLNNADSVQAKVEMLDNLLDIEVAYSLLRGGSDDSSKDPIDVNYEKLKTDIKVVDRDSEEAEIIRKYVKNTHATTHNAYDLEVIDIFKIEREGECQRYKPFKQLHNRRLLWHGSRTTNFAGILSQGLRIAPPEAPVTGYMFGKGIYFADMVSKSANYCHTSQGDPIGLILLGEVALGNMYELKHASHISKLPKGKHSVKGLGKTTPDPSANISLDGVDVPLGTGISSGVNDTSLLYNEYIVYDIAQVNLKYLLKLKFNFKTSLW
Assay Readout: IC50 (µM)
Report only the number, with the unit µM understood.

Worked cases, answers included:
INSERT INTO results (compound, assayed_target, unit_of_measure, numeric_value) VALUES
  ('Cc1cc2ccc(C(C)(C#N)Cc3nc4ccccc4s3)cc2[nH]c1=O (centres unmarked) [Compound 75]', 'Human PARP-1 enzyme (Homo sapiens, UniProt P09874)', 'µM', 1.26),
  ('CCc1cc2ccc(C(C)(C#N)Cc3cc(F)cc(C(F)(F)F)c3)cc2[nH]c1=O (centres unmarked) [Compound 127]', 'Human PARP-1 enzyme (Homo sapiens, UniProt P09874)', 'µM', 1),
  ('Cc1nc(-c2ccccc2)sc1CC(C)(C#N)c1ccc2cc(C)c(=O)[nH]c2c1 (centres unmarked) [Compound 235]', 'Human PARP-1 enzyme (Homo sapiens, UniProt P09874)', 'µM', 0.126);

INPUT: Look up IC50 for this compound: CCc1cc2ccc(C(C)(C#N)Cc3cccc(C)c3F)cc2[nH]c1=O (centres unmarked) [Compound 132]
OUTPUT: 1.26

INPUT: Same thing, different compound: Cc1cc2ccc([C@](C)(C#N)[C@H]3CCc4ccccc43)cc2[nH]c1=O [Compound 387]
OUTPUT: 0.2

INPUT: Same thing, different compound: CCc1cc2ccc(C(C)(C#N)Cc3nncn3C)cc2[nH]c1=O (centres unmarked) [Compound 93]
OUTPUT: 0.126

INPUT: Same thing, different compound: Cc1cc2ccc(C(C)(C#N)C3CCCc4ccccc43)cc2[nH]c1=O (centres unmarked) [Compound 404]
OUTPUT: 0.2

INPUT: Same thing, different compound: CCc1cc2ccc(C(C)(C#N)Cc3cc(N(C)C)nc(C)n3)cc2[nH]c1=O (centres unmarked) [Compound 322]
OUTPUT: 0.2

====

The following compounds are shown together with reported log10 IC50 values.
Biological target: TANK-2 enzyme (Homo sapiens)
Construct: made in house
Sequence (Q9H2K2 1-1166): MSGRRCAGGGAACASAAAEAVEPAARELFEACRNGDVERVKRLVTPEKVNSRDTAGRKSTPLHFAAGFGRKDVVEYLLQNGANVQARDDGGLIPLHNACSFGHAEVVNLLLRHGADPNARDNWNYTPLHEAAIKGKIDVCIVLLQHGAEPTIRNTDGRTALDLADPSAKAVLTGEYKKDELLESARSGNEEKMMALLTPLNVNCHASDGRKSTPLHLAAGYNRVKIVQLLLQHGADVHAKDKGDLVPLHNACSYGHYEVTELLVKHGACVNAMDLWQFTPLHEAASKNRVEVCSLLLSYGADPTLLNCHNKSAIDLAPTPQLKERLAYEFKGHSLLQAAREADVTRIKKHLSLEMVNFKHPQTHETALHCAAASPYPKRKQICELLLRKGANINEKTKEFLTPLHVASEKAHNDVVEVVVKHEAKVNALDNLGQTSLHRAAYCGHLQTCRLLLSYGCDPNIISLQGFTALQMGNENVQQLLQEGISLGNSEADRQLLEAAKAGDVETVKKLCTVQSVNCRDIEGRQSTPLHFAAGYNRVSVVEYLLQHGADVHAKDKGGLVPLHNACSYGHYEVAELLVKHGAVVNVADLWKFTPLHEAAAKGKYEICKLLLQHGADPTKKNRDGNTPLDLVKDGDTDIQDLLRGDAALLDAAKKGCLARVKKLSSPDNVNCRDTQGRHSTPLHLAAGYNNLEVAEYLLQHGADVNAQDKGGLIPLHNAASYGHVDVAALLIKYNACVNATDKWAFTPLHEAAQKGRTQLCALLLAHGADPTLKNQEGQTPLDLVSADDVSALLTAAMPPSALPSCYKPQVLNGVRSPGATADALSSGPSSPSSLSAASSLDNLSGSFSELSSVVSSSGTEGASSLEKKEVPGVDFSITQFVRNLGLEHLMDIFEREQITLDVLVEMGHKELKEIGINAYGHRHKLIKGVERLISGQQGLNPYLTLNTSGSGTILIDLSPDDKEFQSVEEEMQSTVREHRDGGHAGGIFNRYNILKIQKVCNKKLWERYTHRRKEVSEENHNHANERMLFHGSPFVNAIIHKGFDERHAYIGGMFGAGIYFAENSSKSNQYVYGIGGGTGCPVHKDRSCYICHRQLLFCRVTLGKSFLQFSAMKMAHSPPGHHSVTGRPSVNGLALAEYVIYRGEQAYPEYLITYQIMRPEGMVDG
Test: In vitro Scintillation Proximity Assay (SPA) for TANK-2 inhibitory activity
Format: biochemical
Conditions: read-out: in vitro SPA assay TANK-2 pIC50 (converted)
Short version: log10 scale, IC50, nM.

Worked cases, answers included:
INSERT INTO assay_data (compound, assay_readout, numeric_value) VALUES
  ('CCc1cc2ccc(C(C)(C#N)Cc3nc(C)cc(C)n3)cc2[nH]c1=O (centres unmarked) [Compound 368]', 'log10 IC50', 2.20),
  ('CCc1cc2ccc(C(C)(C#N)Cc3nc(C#N)cc(OC)n3)cc2[nH]c1=O (centres unmarked) [Compound 313]', 'log10 IC50', 2.00),
  ('Cc1cc2ccc([C@](C)(C#N)C3CCc4ccccc43)cc2[nH]c1=O (single isomer, unassigned) [Compound 386]', 'log10 IC50', 3.10),
  ('CCc1cc2ccc(C(C)(C#N)Cc3cccc(N(C)CCc4ccccc4)n3)cc2[nH]c1=O.Cl (centres unmarked) [Compound 220]', 'log10 IC50', 3.00),
  ('CCc1cc2ccc(C(C)(C#N)CCOc3ccc4oc(C)c(C)c4c3)cc2[nH]c1=O (centres unmarked) [Compound 162]', 'log10 IC50', 2.20);

INPUT: Look up log10 IC50 for this compound: Cc1cc2ccc([C@](C)(C#N)[C@@H]3CCc4ccc(Br)cc43)cc2[nH]c1=O [Compound 406]
OUTPUT: 3.70

INPUT: Same thing, different compound: CCc1cc2ccc(C(C)(C#N)CC#Cc3cccc(F)c3)cc2[nH]c1=O (centres unmarked) [Compound 184]
OUTPUT: 3.40

INPUT: Same thing, different compound: CCc1cc2ccc(C(C)(C#N)Cc3cccc(C)c3)cc2[nH]c1=O (centres unmarked) [Compound 107]
OUTPUT: 1.50

INPUT: Same thing, different compound: Cc1cc2ccc(C(C)(C#N)Cc3cccc(/C=C/CCO)c3)cc2[nH]c1=O (centres unmarked) [Compound 409]
OUTPUT: 3.00

INPUT: Same thing, different compound: CCc1cc2ccc(C(C)(C#N)Cc3cccc(C(F)(F)F)c3)cc2[nH]c1=O (centres unmarked) [Compound 109]
OUTPUT: 1.90

INPUT: Same thing, different compound: CCc1cc2ccc(C(C)(C#N)Cc3nn(C)c4ccccc34)cc2[nH]c1=O (centres unmarked) [Compound 95]
OUTPUT: 1.90

====

Assay Readout: melting point (°C)
Report only the number, with the unit °C understood.

Worked cases, answers included:
INSERT INTO assay_data (molecule, assay_readout, unit_of_measure, numeric_value) VALUES
  ('C#Cc1cccc(C[C@](C)(C#N)c2ccc3cc(CC)c(=O)[nH]c3c2)c1', 'melting point', '°C', 125),
  ('CCc1cc2c(OC)cc(C(C)(C#N)Cc3nc(OC)cc(OC)n3)cc2[nH]c1=O (centres unmarked)', 'melting point', '°C', 180),
  ('CCc1cc2ccc(C(C)(C#N)Cc3cc(OC)cc(OC)n3)cc2[nH]c1=O (centres unmarked)', 'melting point', '°C', 65),
  ('CCc1cc2ccc(C(C)(C#N)Cc3cccc(N(C)C)c3)cc2[nH]c1=O (centres unmarked)', 'melting point', '°C', 193),
  ('CCc1cc2ccc(C(C)(C#N)Cc3ccc(Cl)nc3OC)cc2[nH]c1=O (centres unmarked)', 'melting point', '°C', 160);

INPUT: Look up melting point for this molecule: CCc1cc2ccc(C(C)(C#N)Cc3cc(OC)ccc3F)cc2[nH]c1=O (centres unmarked)
OUTPUT: 160

INPUT: Same thing, different molecule: CCc1cc2ccc(C(C)(C#N)Cc3nc(C#N)cc(OC)n3)cc2[nH]c1=O (single isomer, unassigned) [Compound 203]
OUTPUT: 179

INPUT: Same thing, different molecule: CCc1cc2ccc(C(C)(C#N)Cc3cc(C#N)cc4c3OCC4)cc2[nH]c1=O (centres unmarked)
OUTPUT: 250
